# System: MOLM13 cells
# assay.notes: Stroma-protecting model: proliferation in HS-5 conditional medium or normal medium
# Assay type: cell-based
# condition: Homo sapiens, MOLM-13; normal medium (NM), 72 h, MTT; read-out: IC50 proliferation of MOLM13 cells in NM
parameter.measured: IC50 (µM)
Numeric only. Scale: µM

Reported IC50, molecule CNC(=O)c1cc(Oc2ccc(NC(=O)Nc3ccc(Cl)c(C(F)(F)F)c3)cc2)ccn1 [Sorafenib, reference compound] : ____
0.0113

Attention now turns to another entry.
Reported IC50, molecule CN1CCN(Cc2ccc(NC(=O)c3n[nH]cc3Nc3ncnc4[nH]ccc34)cc2)CC1 [LT-171-861] : ____
0.0199

---

# tgt: FLT3 (ITD) (Homo sapiens, UniProt P36888, ITD)
# Sequence (P36888 564-993, change not shown): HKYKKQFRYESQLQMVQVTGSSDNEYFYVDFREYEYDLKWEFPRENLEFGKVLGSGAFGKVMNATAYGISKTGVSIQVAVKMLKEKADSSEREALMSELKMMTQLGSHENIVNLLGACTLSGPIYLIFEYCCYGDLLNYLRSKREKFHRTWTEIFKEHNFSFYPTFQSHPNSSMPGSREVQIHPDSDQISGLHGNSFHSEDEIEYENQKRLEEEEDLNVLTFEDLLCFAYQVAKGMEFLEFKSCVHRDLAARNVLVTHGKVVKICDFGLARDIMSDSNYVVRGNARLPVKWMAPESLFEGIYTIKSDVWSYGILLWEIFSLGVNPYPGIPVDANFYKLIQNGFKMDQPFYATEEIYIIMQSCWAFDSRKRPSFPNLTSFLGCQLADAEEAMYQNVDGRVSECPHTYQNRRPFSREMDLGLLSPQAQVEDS
# assay.notes: biochemical
pIC50: −log10 of the molar value.
parameter.measured: pIC50

Reported pIC50, compound CN1CCN(Cc2ccc(NC(=O)c3n[nH]cc3Nc3ncnc4[nH]ccc34)cc2)CC1 [LT-171-861] : ____
> 9.00
